The reported numbers originate from patent US20240226094A1.

targetUnderTest: UniProtKB Q96QP1
Sequence (Q96QP1 whole entry): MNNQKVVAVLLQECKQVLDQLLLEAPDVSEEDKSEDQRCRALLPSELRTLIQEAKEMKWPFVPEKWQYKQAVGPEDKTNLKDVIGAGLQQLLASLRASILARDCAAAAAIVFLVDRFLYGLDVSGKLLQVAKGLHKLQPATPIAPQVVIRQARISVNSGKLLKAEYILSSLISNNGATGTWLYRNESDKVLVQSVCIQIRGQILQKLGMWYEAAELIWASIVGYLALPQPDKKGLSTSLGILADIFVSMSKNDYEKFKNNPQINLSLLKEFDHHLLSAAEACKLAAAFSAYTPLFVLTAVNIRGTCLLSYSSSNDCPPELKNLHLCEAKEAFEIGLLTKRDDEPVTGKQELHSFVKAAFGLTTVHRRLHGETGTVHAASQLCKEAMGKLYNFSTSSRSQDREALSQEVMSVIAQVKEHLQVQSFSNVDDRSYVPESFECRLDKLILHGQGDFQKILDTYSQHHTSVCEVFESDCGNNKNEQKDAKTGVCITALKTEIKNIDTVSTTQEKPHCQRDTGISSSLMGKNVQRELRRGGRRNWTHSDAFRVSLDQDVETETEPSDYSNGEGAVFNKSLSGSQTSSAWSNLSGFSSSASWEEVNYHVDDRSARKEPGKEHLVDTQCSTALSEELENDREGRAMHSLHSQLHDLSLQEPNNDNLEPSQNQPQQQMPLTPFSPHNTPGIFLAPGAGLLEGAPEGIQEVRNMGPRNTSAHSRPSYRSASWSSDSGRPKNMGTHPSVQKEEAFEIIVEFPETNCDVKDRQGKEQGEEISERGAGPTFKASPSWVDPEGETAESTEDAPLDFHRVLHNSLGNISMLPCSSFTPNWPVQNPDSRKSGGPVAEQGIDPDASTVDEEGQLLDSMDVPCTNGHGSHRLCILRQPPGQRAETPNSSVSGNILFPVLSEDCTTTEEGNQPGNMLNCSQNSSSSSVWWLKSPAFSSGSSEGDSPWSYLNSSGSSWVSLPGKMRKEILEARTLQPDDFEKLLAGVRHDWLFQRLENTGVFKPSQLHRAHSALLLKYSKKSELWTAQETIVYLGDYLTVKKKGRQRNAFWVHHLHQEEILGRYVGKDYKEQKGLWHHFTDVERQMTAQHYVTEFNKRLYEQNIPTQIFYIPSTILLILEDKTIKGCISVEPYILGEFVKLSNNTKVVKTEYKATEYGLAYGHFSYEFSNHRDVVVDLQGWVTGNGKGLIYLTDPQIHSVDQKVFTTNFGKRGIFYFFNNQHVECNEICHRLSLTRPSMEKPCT
assayProcedure: ALPK1 in vitro kinase assay (HTRF of TIFA phosphorylation)
Assay type: biochemical
Method: ALPK1 kinase activity was measured in an in vitro assay using ADP-Heptose as the ALPK1 ligand and activator of its kinase activity and TIFA protein as the ALPK1 phosphorylation substrate. Since phosphorylated TIFA proteins oligomerize, Homogeneous Time-Resolved Fluorescence (HTRF) was used to measure protein:protein interaction between HA-tagged TIFA proteins as an indicator of TIFA phosphorylation. […]
propertyName: IC50 (nM)

compound | assayValue
CC(C)(c1ccc(I)cc1)c1csc(NC(=O)NCc2cnc(N3CCNCC3)nc2)n1 [A178] | 42
C#C[C@](C)(c1ccc(OC)cc1)c1csc(NC(=O)N2CC(CO)C2)n1 [A255] | 109
C#C[C@@](C)(c1ccc(F)cc1)c1csc(NC(=O)NCCO)n1 (stereo in doubt) [A283] | 550

---

Test system: ALPK1-dependent NFκB reporter gene activation
assayProcedure: NFκB gene reporter alkaline phosphatase assay in HEK293 G9 cells
Assay type: cell-based, human
assayConditions: Homo sapiens, HEK293; read-out: NFkB assay IC50
Counter-ions that a name gives are not always drawn.
Quick reference for IC50 among some compounds

compound | IC50 [nM]
COc1ccc(C(C)(C)c2csc(NC(=O)NCc3cnccn3)n2)cc1 | 5580
COc1ccc(C(C)(C)c2csc(NC(=O)NCc3ccc(N4CCC(N)C4)nc3)n2)cc1 (stereo not drawn) | 460
COc1ccc(C(C)(C)c2csc(NC(=O)N3CC(c4ccc(N5CCNCC5)cc4)C3)n2)cc1 | 330
COc1ccc(C(C)(C)c2csc(NC(=O)NCc3cc(F)c(C4CCNCC4)c(F)c3)n2)cc1 [A151, hydrochloride] | 950
COc1ccc(C(C)(C)c2csc(NC(=O)NCc3cc(F)c(N4CCNCC4)cc3F)n2)cc1 [A231, hydrochloride] | 3360
CC(C)(c1ccc(Br)cc1)c1csc(NC(=O)NCc2cccc(N3CCNCC3)c2)n1 | 3150
